Entries and their shrunken log2 fold change
tested on: Escherichia coli TOP10; assay: shrunken log2 fold change of peptide-encoding DNA abundance (4.5 h post-induction vs induction); higher = less antimicrobial activity (less host growth inhibition); conditions: time post-induction: 4.5 h; library: site-saturation at positions 5, 18, 19, 20

Example results:
- residue_codes: "RRIRDRPPRLPRPRPRPDLVPRP"
  shrunken log2 fold change: 1.16
- residue_codes: "RRIRHRPPRLPRPRPRPQIPPRP"
  shrunken log2 fold change: 0.0645
- residue_codes: "RRIRRRPPRLPRPRPRPNSHPRP"
  shrunken log2 fold change: -0.11
- residue_codes: "RRIRLRPPRLPRPRPRPDGAPRP"
  shrunken log2 fold change: 0.0651

# context switch: different sequence, same shrunken log2 fold change
Task item: // query shrunken log2 fold change value for entry "RRIRHRPPRLPRPRPRPSSWPRP"
Reply: -0.0281

---

system: Escherichia coli TOP10; assay: shrunken log2 fold change of peptide-encoding DNA abundance (4.5 h post-induction vs induction); higher = less antimicrobial activity (less host growth inhibition); settings: time post-induction: 4.5 h; library: site-saturation at positions 5, 18, 19, 20
Entries and their shrunken log2 fold change
Answer using only a numeral; do not append any unit.

Example results:
- residue_codes: "RRIRFRPPRLPRPRPRPSHEPRP"
  numeric_result: 0.204
- residue_codes: "RRIRVRPPRLPRPRPRPRQAPRP"
  numeric_result: 0.224
- residue_codes: "RRIRRRPPRLPRPRPRPQTVPRP"
  numeric_result: -0.0201
- residue_codes: "RRIRCRPPRLPRPRPRPREDPRP"
  numeric_result: 0.0389

Task item: // query shrunken log2 fold change value for entry "RRIRHRPPRLPRPRPRPQMHPRP"
Reply: -0.00258

Task item: // query shrunken log2 fold change value for entry "RRIRQRPPRLPRPRPRPMGPPRP"
Reply: -0.0254

Task item: // query shrunken log2 fold change value for entry "RRIRQRPPRLPRPRPRPQQHPRP"
Reply: -0.362

Task item: // query shrunken log2 fold change value for entry "RRIRWRPPRLPRPRPRPMTRPRP"
Reply: 0.0972

Task item: // query shrunken log2 fold change value for entry "RRIRMRPPRLPRPRPRPIVRPRP"
Reply: -0.0408

---

Entries and their shrunken log2 fold change
test system: Escherichia coli TOP10; assay: shrunken log2 fold change of peptide-encoding DNA abundance (4.5 h post-induction vs induction); higher = less antimicrobial activity (less host growth inhibition); settings: time post-induction: 4.5 h; library: site-saturation at positions 5, 18, 19, 20

Example results:
- residue_codes: "RRIRYRPPRLPRPRPRPQKPPRP"
  shrunken log2 fold change: -0.0745
- residue_codes: "RRIRERPPRLPRPRPRPTNFPRP"
  shrunken log2 fold change: -0.00437

# context switch: different sequence, same shrunken log2 fold change
Task item: // query shrunken log2 fold change value for entry "RRIRTRPPRLPRPRPRPIRIPRP"
Reply: -0.202

---

test system: Escherichia coli TOP10; assay: shrunken log2 fold change of peptide-encoding DNA abundance (4.5 h post-induction vs induction); higher = less antimicrobial activity (less host growth inhibition); settings: time post-induction: 4.5 h; library: site-saturation at positions 5, 18, 19, 20
Please note: True applies when shrunken log2 fold change is 0.03 or greater, and False applies otherwise.

Use the examples below as a reference point.
- residue_codes: "RRIRARPPRLPRPRPRPPRCPRP"
  label: "True"
- residue_codes: "RRIRERPPRLPRPRPRPPFFPRP"
  label: "True"
- residue_codes: "RRIRSRPPRLPRPRPRPSGWPRP"
  label: "True"

Task item: Given the entry "RRIRCRPPRLPRPRPRPNFPPRP" , answer whether its shrunken log2 fold change meets or surpasses 0.03.
Reply: True

Task item: Given the entry "RRIRQRPPRLPRPRPRPKLAPRP" , answer whether its shrunken log2 fold change meets or surpasses 0.03.
Reply: False

Task item: Given the entry "RRIRYRPPRLPRPRPRPPISPRP" , answer whether its shrunken log2 fold change meets or surpasses 0.03.
Reply: False

---

Entries and their shrunken log2 fold change
tested on: Escherichia coli TOP10; assay: shrunken log2 fold change of peptide-encoding DNA abundance (4.5 h post-induction vs induction); higher = less antimicrobial activity (less host growth inhibition); conditions: time post-induction: 4.5 h; library: site-saturation at positions 5, 18, 19, 20

Example results:
- residue_codes: "RRIRQRPPRLPRPRPRPVSQPRP"
  subject_of_test: "Escherichia coli TOP10"
  result: 0.00815
- residue_codes: "RRIRVRPPRLPRPRPRPPVTPRP"
  subject_of_test: "Escherichia coli TOP10"
  result: -0.0902
- residue_codes: "RRIRKRPPRLPRPRPRPARMPRP"
  subject_of_test: "Escherichia coli TOP10"
  result: 0.905
- residue_codes: "RRIRTRPPRLPRPRPRPGKDPRP"
  subject_of_test: "Escherichia coli TOP10"
  result: 0.0234
- residue_codes: "RRIRDRPPRLPRPRPRPCHKPRP"
  subject_of_test: "Escherichia coli TOP10"
  result: -0.00188

Task item: // query shrunken log2 fold change value for entry "RRIRIRPPRLPRPRPRPHVEPRP"
Reply: -0.227

Task item: // query shrunken log2 fold change value for entry "RRIRMRPPRLPRPRPRPAVNPRP"
Reply: 0.0731

Task item: // query shrunken log2 fold change value for entry "RRIRPRPPRLPRPRPRPATHPRP"
Reply: 0.0822

---

tested on: Escherichia coli TOP10; experiment: shrunken log2 fold change of peptide-encoding DNA abundance (4.5 h post-induction vs induction); higher = less antimicrobial activity (less host growth inhibition); conditions: time post-induction: 4.5 h; library: site-saturation at positions 5, 18, 19, 20
Please note: Yes applies when shrunken log2 fold change is -0.006 or greater, and No applies otherwise.

Use the examples below as a reference point.
- residue_codes: "RRIRVRPPRLPRPRPRPGCHPRP"
  label: "Yes"
- residue_codes: "RRIRWRPPRLPRPRPRPLSSPRP"
  label: "No"
- residue_codes: "RRIRWRPPRLPRPRPRPGLNPRP"
  label: "Yes"
- residue_codes: "RRIRWRPPRLPRPRPRPFWCPRP"
  label: "Yes"
- residue_codes: "RRIRARPPRLPRPRPRPVHVPRP"
  label: "Yes"
- residue_codes: "RRIRRRPPRLPRPRPRPGGDPRP"
  label: "Yes"

--- query ---
Task item: Given the entry "RRIRPRPPRLPRPRPRPDTMPRP" , answer whether its shrunken log2 fold change meets or surpasses -0.006.
Reply: No

---

tested on: Escherichia coli TOP10; experiment: shrunken log2 fold change of peptide-encoding DNA abundance (4.5 h post-induction vs induction); higher = less antimicrobial activity (less host growth inhibition); conditions: time post-induction: 4.5 h; library: site-saturation at positions 5, 18, 19, 20
Please use the following shrunken log2 fold change ranges when assigning a class: class 0: < 0.007; class 1: ≥ 0.007 and < 0.2; class 2: ≥ 0.2

Use the examples below as a reference point.
- residue_codes: "RRIRIRPPRLPRPRPRPYCGPRP"
  label: "class 0"
- residue_codes: "RRIRVRPPRLPRPRPRPPPSPRP"
  label: "class 2"
- residue_codes: "RRIRKRPPRLPRPRPRPTPRPRP"
  label: "class 2"
- residue_codes: "RRIRMRPPRLPRPRPRPLFVPRP"
  label: "class 2"
- residue_codes: "RRIRPRPPRLPRPRPRPCMQPRP"
  label: "class 0"

Task item: Sort into band: "RRIRGRPPRLPRPRPRPEAFPRP"
Reply: class 2

Task item: Sort into band: "RRIRWRPPRLPRPRPRPYPRPRP"
Reply: class 0

Task item: Sort into band: "RRIRNRPPRLPRPRPRPWNRPRP"
Reply: class 1

Task item: Sort into band: "RRIRPRPPRLPRPRPRPQGWPRP"
Reply: class 2

Task item: Sort into band: "RRIRARPPRLPRPRPRPLNKPRP"
Reply: class 1

Task item: Sort into band: "RRIRYRPPRLPRPRPRPWVWPRP"
Reply: class 0

---

test system: Escherichia coli TOP10; assay: shrunken log2 fold change of peptide-encoding DNA abundance (4.5 h post-induction vs induction); higher = less antimicrobial activity (less host growth inhibition); settings: time post-induction: 4.5 h; library: site-saturation at positions 5, 18, 19, 20;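 also: peptides expressed intracellularly from a pBAD plasmid library in pooled LB shake-flask culture, induced with 0.3% L-arabinose, DNA abundance read by NGS, three biological replicates, DESeq2 with apeglm shrinkage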
Please note: fulfilled applies when shrunken log2 fold change is -0.1 or greater, and not fulfilled applies otherwise.

Use the examples below as a reference point.
- residue_codes: "RRIRIRPPRLPRPRPRPSWGPRP"
  subject_of_test: "Escherichia coli TOP10"
  label: "fulfilled"
- residue_codes: "RRIRPRPPRLPRPRPRPWKMPRP"
  subject_of_test: "Escherichia coli TOP10"
  label: "fulfilled"
- residue_codes: "RRIRVRPPRLPRPRPRPGLLPRP"
  subject_of_test: "Escherichia coli TOP10"
  label: "not fulfilled"
- residue_codes: "RRIRYRPPRLPRPRPRPIFGPRP"
  subject_of_test: "Escherichia coli TOP10"
  label: "not fulfilled"
- residue_codes: "RRIRARPPRLPRPRPRPYHNPRP"
  subject_of_test: "Escherichia coli TOP10"
  label: "not fulfilled"

--- query ---
Task item: Given the entry "RRIRYRPPRLPRPRPRPAAHPRP" , answer whether its shrunken log2 fold change meets or surpasses -0.1.
Reply: not fulfilled
